Tested on: TK-10 renal
Assay: NCI tumour cell line growth inhibition, 48 h
assay_metric: TGI

# TGI of CN1CCc2cc3c(c4c2C1C(O)c1ccccc1-4)OCO3 (centres undefined) = > 100 µM

# TGI of COC(=O)NC(Nc1ccccn1)(C(F)(F)F)C(F)(F)F = > 100 µM

# TGI of Clc1cccc(Cc2cn3cc(-c4ccccc4)nc3s2)c1Cl = > 100 µM

# TGI of CC1OC(OC2C(O[C@H]3CC[C@@H]4C(=CC[C@@H]5[C@@]4(C)C(=O)C[C@]4(C)[C@@H]([C@H](C)CC[C@@H](O)C(C)(C)O)CC[C@@]54C)C3(C)C)OC(CO)C(O)C2O)C(O)C(O)C1O (some centres undefined) = > 100 µM

# TGI of C1=CC2C=CC(C=C1)P2c1ccccc1 (centres undefined) = > 100 µM

# TGI of COc1ccc(-c2cc(=O)c3ccc(O)cc3o2)c(OC)c1OC = > 100 µM

# TGI of N#CC(C#N)=C1C(=Cc2ccc(OCCCCCCCCCCSSCCCCCCCCCCOc3ccc(C=C4C(=C(C#N)C#N)c5ccccc5C4=C(C#N)C#N)cc3)cc2)C(=C(C#N)C#N)c2ccccc21 = > 100 µM

# TGI of NC1CC(=O)c2cscc21 (centres undefined) = 33.6 µM

# TGI of O=C1NC(N/N=C/C(O)C(O)C(O)C(O)CO)=N/C1=C\c1ccco1 (centres undefined) = > 100 µM

# TGI of COc1cc2nc(-c3ccc(C(F)(F)F)cc3)cc(OCCCN3CCC(O)CC3)c2cc1OC = 25.7 µM

More entries:
# TGI of Fc1ccc(Nc2ncnc3ccc(-c4cnc5[nH]ccc5c4)cc23)cc1Cl = 13.8 µM

# TGI of CCc1ccc2c(c1)C(=O)c1c-2n(CCCBr)c(=O)c2cc([N+](=O)[O-])ccc12 = > 50 µM

# TGI of CSc1ccc(/C=C2\CN(C)C/C(=C\c3ccc(SC)cc3)C2=O)cc1 = > 100 µM

# TGI of NS(=O)(=O)c1ccccc1C(=O)N/N=C(\c1nc2ccc([N+](=O)[O-])cc2[nH]c1=O)C(O)c1ccc([N+](=O)[O-])cc1 (centres undefined) = > 100 µM

# TGI of COc1cc2cnc3c4cc(OC(C)C)c(OC)cc4ccc3c2cc1OC = > 100 µM

# TGI of O=C1C2=C(SCCS2)C(=O)c2ccccc21 = 3.24 µM

# TGI of CCOC(=O)C1=C(C)CC2C(=O)OC(=O)C2C1(C)C (centres undefined) = > 100 µM

# TGI of C=C(CNCCO)[C@@H]1CC[C@]2(CO)CC[C@]3(C)[C@H](CC[C@@H]4[C@@]5(C)CCC(N)C(C)(C)[C@@H]5CC[C@]43C)[C@@H]12 (some centres undefined) = 7.07 µM

# TGI of CC(C)=CCCc1c(C)ccc2c1C(=O)C(=O)C(C(C)C)=C2 = 8.81 µM

----------
System: M19-MEL melanoma
Assay: NCI tumour cell line growth inhibition, 48 h
Overview of reported TGI across a group of compounds:

Below are worked cases with known answers.
# TGI of O=C1NC2(CCCCC2)C2CCCCC(O)C12 (configuration not stated) = > 100 µM

# TGI of Cc1cc(=O)[nH]c(NNC(C#N)c2cccc(O)c2)n1 (configuration not stated) = > 100 µM

Query compound follows.
# TGI of CCNC1C2(CCCCC2)NC(=O)C12CCCCC2 (configuration not stated) = > 100 µM

----------
Overview of reported GI50 across a group of molecules:
Test system: SF-268 CNS
Experiment: NCI tumour cell line growth inhibition, 48 h

Below are worked cases with known answers.
The reported SF-268 CNS GI50 of CC1(C)COC(c2ccc(C(F)(F)F)cc2C(O)c2ccc3ccccc3c2)=N1 (stereo not given) is > 10 µM

The reported SF-268 CNS GI50 of NC1CCC(Nc2nc(NCc3ccc(-c4ccco4)nc3)c3ncn(C4CCCC4)c3n2)CC1 (stereo not given) is 0.011 µM

The reported SF-268 CNS GI50 of COc1cc2nc(-c3ccc(C(F)(F)F)cc3)cc(OCCCN3CCC(O)CC3)c2cc1OC is 5.76 µM

The reported SF-268 CNS GI50 of CSc1ccccc1C#C/C=C\C#Cc1ccccc1N1CCCC1=O is > 10.2 µM

More entries:
The reported SF-268 CNS GI50 of Cc1cc(=O)n2[nH]c(-c3ccc(C(C)(C)C)cc3)cc2n1 is 7.85 µM

----------
Overview of reported GI50 across a group of compounds:
Test system: A549 NSCLC
Assay: NCI tumour cell line growth inhibition, 48 h

# GI50 of O=C(Nc1ccc(F)cc1F)c1cc(I)ccc1O = 3.1 µM

More entries:
# GI50 of O=C(NCCNc1nccc(-c2c(-c3cccc(O)c3)nc3sccn23)n1)c1ccccc1O = 5.02 µM

# GI50 of Fc1ccc(Nc2ncnc3ccc(-c4cnc5[nH]ccc5c4)cc23)cc1Cl = 1.79 µM

# GI50 of NC(CSC(c1ccccc1)(c1ccccc1)c1ccc2c(c1)OCO2)C(=O)O (centres undefined) = 0.635 µM

# GI50 of CN(C)c1ccc(-c2cc(-c3ccc(Nc4nc(Nc5ccc(Cl)cc5)nc(Nc5ccc(Cl)cc5)n4)cc3)no2)cc1 = 5.12 µM

# GI50 of COc1ccc(C2=CSc3cc(Cl)c(C)cc3S(=O)(=O)N2C(C)=O)cc1 = 27.4 µM

# GI50 of CC(C)c1ccc(C(C)C(=O)N(CC2=C(C(C)c3ccccn3)c3ccccc3C2)C(C)C)cc1 (centres undefined) = 3.85 µM

# GI50 of Cn1ccnc1C(=O)/C=C/c1ccc(CC(=O)Nc2ccc(Br)cc2)cc1 = 4.68 µM

# GI50 of O=C1NNC(=O)c2ccccc2SSc2ccccc2C(=O)NNC(=O)c2ccccc2SSc2ccccc21 = 11.3 µM

# GI50 of COc1c2ccoc2c(/C=C/C=O)c2oc(-c3ccccc3)cc(=O)c12 = 21.5 µM

# GI50 of Cc1cc2nc(C(Cl)Cl)nc(-c3ccc(Cl)cc3)n2n1 = 0.448 µM

# GI50 of O=C(Nc1ccc(I)cc1)c1cc([N+](=O)[O-])ccc1O = 11.6 µM

# GI50 of CCCCCCCC(=O)SCC/C=C/[C@@H]1CC(=O)NCc2cccc(n2)C2=N[C@@](C)(CS2)C(=O)N[C@@H](C(C)C)C(=O)N1 = 0.723 µM

# GI50 of O=C(CN1CCN(c2cc3c(cc2F)c(=O)c(C(=O)N/N=C/c2ccccc2O)cn3C2CC2)CC1)N/N=C\c1ccccc1O = 0.569 µM

----------
Test system: ACHN renal
Assay: NCI tumour cell line growth inhibition, 48 h
assay_metric: TGI (µM)
The reply should be a number in µM, with the unit left off.

# TGI of CC1=CC(=O)[C@@H](O)[C@]2(C)[C@H]3[C@@]4(O)OC[C@]35[C@H]([C@@H](C)[C@H]4O)[C@@H](OC(=O)C(C)(C)CO)C(=O)O[C@@H]5C[C@@H]12 = 1.33

# TGI of COc1ccc2c(c1)C(=O)/C(=C/c1ccc(OCC(=O)Nc3nccs3)cc1)O2 = 20.5

# TGI of CC(C)(C)c1cc(C(=O)/C=C/c2c(Cl)cccc2Cl)cc(C(C)(C)C)c1O = 28.2

# TGI of COc1ccc(-c2cc(-c3ccc(Nc4nc(Nc5ccccc5)nc(Nc5ccc(Cl)cc5)n4)cc3)nc(N)c2C#N)cc1 = 1.77

# TGI of O=C1N(C2CCCCC2)C(=O)N1C1CCCCC1 = 12

# TGI of Nc1cc2nc3ccccc3sc-2cc1=O = 11.1

# TGI of COc1cc(C(=O)/C=C/c2sc(Cl)nc2Cl)cc(OC)c1OC = 3.12

# TGI of O=C1C=Cc2c(Br)sc(Br)c21 = 57.7

# TGI of CC(C)=CCCc1c(C)ccc2c1C(=O)C(=O)C(C(C)C)=C2 = 6.84

# TGI of CC(=O)Oc1c(C)c2c(c3ncccc13)OC(C)C2 (stereo unspecified) = 24.5

# TGI of CC(=O)[O][Hg][c]1c(N)c(C)cc(C)c1F = 3.08

# TGI of CC(=O)c1cccc(Nc2nc3ccccc3c3occc23)c1 = 39.9

----------
Tested on: HS 578T breast
Experiment: NCI tumour cell line growth inhibition, 48 h
Overview of reported TGI across a group of molecules:
The reply should be a number in µM, with the unit left off.

# TGI of CC(=O)[O][Hg][c]1c(N)c(C)cc(C)c1F = 6.85

----------
Tested on: PC-3 prostate
Assay: NCI tumour cell line growth inhibition, 48 h
Entry flag: Met if TGI reaches 30 µM; Not met if it does not.

[ask] For this molecule, is measured TGI 30 µM or higher? Cc1nnc2n1N=C(c1ccccc1)/C(=C/c1ccc(-c3ccc(Cl)cc3)o1)S2
[reply] Not met

[ask] For this molecule, is measured TGI 30 µM or higher? CC1OC(OC2C(OC(=O)[C@]34CCC(C)(C)C[C@H]3C3=CC[C@@H]5[C@@]6(C)CC[C@H](OC7OC(C(=O)O)C(O)C(O)C7O)C(C)(C)[C@@H]6CC[C@@]5(C)[C@]3(C)C[C@H]4O)OCC(O)C2O)C(O)C(O)C1OC1OCC(OC2OCC(O)C(O)C2O)C(O)C1O (stereo partly drawn)
[reply] Not met

[ask] For this molecule, is measured TGI 30 µM or higher? COc1cccc2c1C(=O)C1=C(C2=O)C(O)CC(C)(C)O1 (stereo not drawn)
[reply] Met

[ask] For this molecule, is measured TGI 30 µM or higher? O=c1ccn([C@@H]2C[C@H]2CO)c(=O)[nH]1
[reply] Met

[ask] For this molecule, is measured TGI 30 µM or higher? COc1cc2c(cc1OC)[C@@H]1[C@H](C#N)C(=O)C(C)(C)N1CC2
[reply] Met

[ask] For this molecule, is measured TGI 30 µM or higher? C/C=C/C(C#N)(/C=C/c1ccccc1)OP1(=O)OC(c2ccccc2)C(C)N1C (stereo not drawn)
[reply] Met

[ask] For this molecule, is measured TGI 30 µM or higher? CN(Cc1cnc2nc(N)nc(N)c2n1)c1ccc(C(=O)NCCS(=O)(=O)O)cc1
[reply] Met

[ask] For this molecule, is measured TGI 30 µM or higher? C=C(CNCCO)[C@@H]1CC[C@]2(CO)CC[C@]3(C)[C@H](CC[C@@H]4[C@@]5(C)CCC(N)C(C)(C)[C@@H]5CC[C@]43C)[C@@H]12 (stereo partly drawn)
[reply] Not met
